molecular target: Adenosine receptor A2b (Homo sapiens); test: Antagonist activity at human adenosine A2b receptor expressed in CHO cells expressed in inhibition of NECA-induced cAMP level; parameters: concentration or dose not given beside the values; details: concentration not given here
Measured metric: inhibition (%)

CN(C)c1cccc2c(S(=O)(=O)Oc3cc(N)nc(SCCO)n3)cccc12 ... 5
CC(C)(C)OC(=O)NCCSc1nc(N)cc(=O)[nH]1 ... 8
Cc1ccc(S(=O)(=O)NCCSc2nc(N)cc(=O)[nH]2)cc1 ... 3

I: Cc1ccc(S(=O)(=O)Oc2cc(N)nc(SCCO)n2)cc1
II: Cc1ccc(S(=O)(=O)Oc2cc(N)nc(SCCN)n2)cc1
III: CCCCCSc1nc(N)cc(OS(=O)(=O)c2ccccc2Cl)n1
Challenge: Could you please sort these 3 entries by inhibition from high to low? // ordering of labels required in reply
Response given: III, II, I
(III: 10%, II: 7%, I: 4%)

====

target: UniProt:P29275; experiment: Antagonist activity at human adenosine A2b receptor expressed in CHO cells expressed in inhibition of cAMP level; design: concentration or dose not given beside the values; details: concentration not given here
Measured metric: inhibition (%)

Here's what some known entries look like.
CC(C)(C)OC(=O)NCCSc1nc(N)cc(=O)[nH]1 ... 3
Cc1ccc(S(=O)(=O)Oc2cc(N)nc(SCCN)n2)cc1 ... 10
CCCCCSc1nc(N)cc(OS(=O)(=O)c2ccccc2Cl)n1 ... 8

I: Cc1ccc(S(=O)(=O)NCCSc2nc(N)cc(=O)[nH]2)cc1
II: Cc1ccc(S(=O)(=O)Oc2cc(N)nc(SCCO)n2)cc1
Challenge: Of the two listed items, which has the higher inhibition? First: I Second: II // caller expects the label of the chosen entry
Response given: I

====

experiment: Antiplatelet activity against 10^-5 M ADP-induced human platelet aggregation at 100 uM by light transmission aggregometry; format: functional
Measured metric: Activity (%)
Write it as a number; the unit % goes unstated.

Here's what some known entries look like.
Cc1ccc(S(=O)(=O)Oc2cc(N)nc(SCCO)n2)cc1 ... 99
CN(C)c1cccc2c(S(=O)(=O)Oc3cc(N)nc(SCC(F)(F)F)n3)cccc12 ... 104
CN(C)c1cccc2c(S(=O)(=O)Oc3cc(N)nc(SCc4ccccc4Cl)n3)cccc12 ... 101
Nc1cc(OS(=O)(=O)c2ccccc2Cl)nc(SCc2ccccc2Cl)n1 ... 96
CN(C)c1cccc2c(S(=O)(=O)Oc3cc(N)nc(SCCN)n3)cccc12 ... 99

Challenge: Please report the measured Activity for "CN(C)c1cccc2c(S(=O)(=O)Oc3cc(N)nc(SCCO)n3)cccc12"
Response given: 100

Challenge: Please report the measured Activity for "Cc1ccc(S(=O)(=O)Oc2cc(N)nc(SCCN)n2)cc1"
Response given: 96

Challenge: Please report the measured Activity for "Nc1cc(OCc2ccccc2Cl)nc(SCc2ccccc2Cl)n1"
Response given: 95

Challenge: Please report the measured Activity for "Nc1cc(=O)[nH]c(SCCO)n1"
Response given: 99

Challenge: Please report the measured Activity for "Nc1cc(OS(=O)(=O)c2ccccc2Cl)nc(SCCO)n1"
Response given: 100

Challenge: Please report the measured Activity for "CCCCCSc1nc(N)cc(O)n1"
Response given: 100
